- experimental-system: P2X7 receptor (Homo sapiens (Human), UniProt Q99572)
- Sequence (Q99572 whole entry): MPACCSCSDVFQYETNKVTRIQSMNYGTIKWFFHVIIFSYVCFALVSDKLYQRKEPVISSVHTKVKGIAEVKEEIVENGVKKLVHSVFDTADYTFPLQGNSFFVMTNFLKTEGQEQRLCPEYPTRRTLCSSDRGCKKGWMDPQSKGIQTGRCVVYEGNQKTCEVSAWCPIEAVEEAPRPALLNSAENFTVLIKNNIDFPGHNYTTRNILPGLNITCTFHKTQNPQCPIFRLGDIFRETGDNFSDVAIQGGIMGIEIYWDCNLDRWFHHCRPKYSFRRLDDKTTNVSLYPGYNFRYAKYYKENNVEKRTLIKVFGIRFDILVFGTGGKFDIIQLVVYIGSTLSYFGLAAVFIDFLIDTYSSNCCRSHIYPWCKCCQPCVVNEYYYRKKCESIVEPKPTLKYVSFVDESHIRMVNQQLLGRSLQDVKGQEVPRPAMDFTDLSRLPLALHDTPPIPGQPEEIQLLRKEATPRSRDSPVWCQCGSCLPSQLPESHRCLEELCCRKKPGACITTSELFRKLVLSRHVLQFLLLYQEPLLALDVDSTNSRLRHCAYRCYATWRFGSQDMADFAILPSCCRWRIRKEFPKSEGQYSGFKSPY
- assay-explanation: P2X7 FLIPR assay (BzATP-stimulated calcium fluorescence, antagonist IC50)
- Format: cell-based
pIC50: −log10 of the molar value.
measurement-label: pIC50

Example cases with answers are listed next.
[[record]]
molecule = "Cc1ncc(C(CNC(=O)c2ccccc2Cl)CC2(C(F)(F)F)CC2)cn1 (single isomer, unassigned; (-)) [(−)2-chloro-N-[2-(2-methylpyrimidin-5-yl)-3-[1-(trifluoromet]"
measurement_label = "pIC50"
value_measured = 6.19

[[record]]
molecule = "O=C(NCC(CC1(C(F)(F)F)CC1)c1ccc(C(F)(F)F)nc1)c1ccccc1Cl (single isomer, unassigned; (-)) [(−)2-chloro-N-[3-[1-(trifluoromethyl)cyclopropyl]-2-[6-(trif]"
measurement_label = "pIC50"
value_measured = 7.49

[[record]]
molecule = "Cc1ncc(C(CNC(=O)c2cccc(F)c2Cl)C2CCC(F)(F)CC2)cn1 (stereo not shown)"
measurement_label = "pIC50"
value_measured = 7.08

[[record]]
molecule = "O=C(NCC1(c2ccc(Cl)cc2)CCOCC1)c1cc(F)cc(F)c1F"
measurement_label = "pIC50"
value_measured = 5.44

[[record]]
molecule = "COc1cccc(C(=O)NCC(CC2CC2)c2cnc(C(F)(F)F)nc2)c1C (single isomer, unassigned; (+)) [(+)N-[3-cyclopropyl-2-[2-(trifluoromethyl)pyrimidin-5-yl]pro]"
measurement_label = "pIC50"
value_measured = 8.05


I. O=C(NCC(CC1(C(F)(F)F)CC1)c1ccc(C(F)(F)F)nc1)c1cccc(Cl)c1Cl (stereo not shown) [2,3-dichloro-N-[3-[1-(trifluoromethyl)cyclopropyl]-2-[6-(tri]
II. O=C(NCC(CC1CC1)c1cncc(Cl)c1)c1cccc(Cl)c1Cl (stereo not shown)
Determine, for I and II , which has the greater value of pIC50. Give the label under which the chosen entry appears. II
(II: 8.26, I: 7.72)

###

- experimental-system: P2X7 receptor (Homo sapiens (Human))
- assay-explanation: P2X7 FLIPR assay (BzATP-stimulated calcium fluorescence, antagonist IC50)
- Assay type: cell-based
measurement-label: IC50 (nM)

[[record]]
compound = "O=C(NCC(c1ccc(F)cc1)c1cnc(C(F)(F)F)nc1)c1ccccc1Cl (single isomer, unassigned; (-)) [(−)2-chloro-N-[2-(4-fluorophenyl)-2-[2-(trifluoromethyl)pyri]"
experimental_system = "P2X7 receptor (Homo sapiens (Human))"
measurement_label = "IC50"
unit_abbrev = "nM"
value_measured = 2


A. O=C(NCC(CC1(C(F)(F)F)CC1)c1ccc(C2CC2)nc1)c1ccccc1Cl (stereo not drawn)
B. O=C(NCC(CC1CC1)c1ccc(C(F)(F)F)nc1)c1cccc(F)c1Cl (single isomer, unassigned; (+)) [(+)2-chloro-N-[3-cyclopropyl-2-[6-(trifluoromethyl)-3-pyridy]
C. O=C(NCC1(c2ccc(Cl)cc2)CCOCC1)c1cccc(Cl)c1F
Ordering: ascending IC50. Please list each label once, in the requested order. B, A, C
(B: 11 nM, A: 94 nM, C: 890 nM)

###

- experimental-system: P2X7 receptor (Homo sapiens (Human))
- assay-explanation: P2X7 FLIPR assay (BzATP-stimulated calcium fluorescence, antagonist IC50)
- Assay type: cell-based
measurement-label: IC50 (nM)

Example cases with answers are listed next.
[[record]]
molecule = "Cc1ccc(Cl)c(C(=O)NCC2(c3cccnc3)CCCC2)c1"
value_measured = 2900

[[record]]
molecule = "Cc1c(F)cccc1C(=O)NCC1(c2ccc(C(F)(F)F)nc2)CCC(F)(F)CC1"
value_measured = 4


P. O=C(NCC(CC1CC1)c1ccc(C(F)(F)F)nc1)c1cccc(Cl)c1Cl (stereo not shown) [2,3-dichloro-N-[3-cyclopropyl-2-[6-(trifluoromethyl)-3-pyrid]
Q. O=C(NCC(CC1CC1)c1cnc(C(F)(F)F)nc1)c1cccc(F)c1Cl (single isomer, unassigned; (+)) [(+)2-chloro-N-[3-cyclopropyl-2-[2-(trifluoromethyl)pyrimidin]
R. O=C(NCC(c1ccccc1)c1ccc(Cl)cc1)c1cccc(Cl)c1Cl (stereo not shown)
S. Cc1ncc(C(CNC(=O)c2cccc(Cl)c2Cl)C2CCC(F)(F)CC2)cn1 (stereo not shown)
T. Cc1ccc(C(CNC(=O)c2cccc(Cl)c2Cl)CC(C)C)cn1 (stereo not shown)
Falling order of IC50, please. Please list each label once, in the requested order. R, Q, S, T, P
(R: 120 nM, Q: 50 nM, S: 6.2 nM, T: 1 nM, P: 0.55 nM)

###

- experimental-system: P2X7 receptor (Homo sapiens (Human), UniProt Q99572)
- assay-explanation: P2X7 FLIPR assay (BzATP-stimulated calcium fluorescence, antagonist IC50)
- Type: cell-based
pIC50: −log10 of the molar value.
measurement-label: pIC50

[[record]]
compound = "CC(C)(O)c1ccc(C(CNC(=O)c2cccc(Cl)c2Cl)CC2CC2)cn1 (single isomer, unassigned; (-)) [(−)2,3-dichloro-N-[3-cyclopropyl-2-[6-(1-hydroxy-1-methyl-et]"
measurement_label = "pIC50"
value_measured = 7.52

[[record]]
compound = "O=C(NCC1(c2cnc(C(F)(F)F)nc2)CCOCC1)c1c(F)cccc1Cl"
measurement_label = "pIC50"
value_measured = 5.80

[[record]]
compound = "O=C(NCC(CC1CC1)c1ccc(C(F)(F)F)nc1)c1cccc(Cl)c1Cl (single isomer, unassigned; (-)) [(−)2,3-dichloro-N-[3-cyclopropyl-2-[6-(trifluoromethyl)-3-py]"
measurement_label = "pIC50"
value_measured = 9.51

[[record]]
compound = "O=C(NCC1(c2ccc(C(F)(F)F)nc2)CCC(F)(F)CC1)c1cccc(Cl)c1F"
measurement_label = "pIC50"
value_measured = 8.49

[[record]]
compound = "CC(CNC(=O)c1cccc(F)c1Cl)(CC1CC1)c1cnc(C(F)(F)F)nc1 (stereo not drawn) [2-chloro-N-[3-cyclopropyl-2-methyl-2-[2-(trifluoromethyl)pyr]"
measurement_label = "pIC50"
value_measured = 7.80


I. Cc1cccc(C(=O)NCC2(c3ccc(Cl)cc3)CCOCC2)c1C
II. O=C(NCC1(c2ccc(F)nc2)CCC(F)(F)CC1)c1ccccc1Cl
III. Cc1c(C#N)cccc1C(=O)NCC1(c2ccc(C(F)(F)F)nc2)CCC(F)(F)CC1
Ordering: ascending pIC50. Please list each label once, in the requested order. I, III, II

###

- experimental-system: P2X7 receptor (Homo sapiens (Human))
- assay-explanation: P2X7 FLIPR assay (BzATP-stimulated calcium fluorescence, antagonist IC50)
- Type: cell-based
pIC50: −log10 of the molar value.
measurement-label: pIC50

[[record]]
molecule = "Cc1ncc(C(CNC(=O)c2cccc(F)c2Cl)c2ccncc2)cn1 (stereo not shown)"
value_measured = 6.07

[[record]]
molecule = "O=C(NCC(CC1(C(F)(F)F)CC1)c1ccc(C(F)(F)F)nc1)c1cccc(Cl)c1Cl (single isomer, unassigned; (-)) [(−)2,3-dichloro-N-[3-[1-(trifluoromethyl)cyclopropyl]-2-[6-(]"
value_measured = 7.60

[[record]]
molecule = "O=C(NCC(c1ccccc1)c1ccc(C(F)(F)F)nc1)c1ccc(Cl)cc1Cl (stereo not shown)"
value_measured = 7.60

[[record]]
molecule = "O=C(NCC(c1cnc(C(F)(F)F)nc1)C1CCOCC1)c1cccc(F)c1Cl (single isomer, unassigned; (-)) [(−)2-chloro-3-fluoro-N-[2-tetrahydropyran-4-yl-2-[2-(trifluo]"
value_measured = 7.19

[[record]]
molecule = "O=C(NCC1(c2ccc(Cl)cc2)CCOCC1)c1cccc(C(F)(F)F)c1F"
value_measured = 5.37


A. CC(CNC(=O)c1ccccc1Cl)(CC1CC1)c1cnc(C(F)(F)F)nc1 (single isomer, unassigned; (+)) [(+)2-chloro-N-[3-cyclopropyl-2-methyl-2-[2-(trifluoromethyl)]
B. Cc1ccc(Cl)c(C(=O)NCC2(c3ccc(Cl)cc3)CCOCC2)c1
Determine, for A and B , which has the greater value of pIC50. Give the label under which the chosen entry appears. B

###

- experimental-system: P2X7 receptor (Homo sapiens (Human), UniProt Q99572)
- assay-explanation: P2X7 FLIPR assay (BzATP-stimulated calcium fluorescence, antagonist IC50)
- Assay type: cell-based
measurement-label: IC50 (nM)

[[record]]
compound = "O=C(NCC(c1ccccc1)c1ccc(C(F)(F)F)nc1)c1c(Cl)cccc1Cl (single isomer, unassigned; (+)) [(+)2,6-dichloro-N-[2-phenyl-2-[6-(trifluoromethyl)-3-pyridyl]"
unit_abbrev = "nM"
value_measured = 12


I. O=C(NCC1(c2ccc(F)nc2)CCC(F)(F)CC1)c1ccccc1F [N-[4,4-Difluoro-1-(6-fluoro-pyridin-3-yl)-cyclohexylmethyl]-]
II. O=C(NCC(c1cnc(C(F)(F)F)nc1)C1CCOCC1)c1c(F)cccc1Cl (single isomer, unassigned; (-)) [(−)2-chloro-6-fluoro-N-[2-tetrahydropyran-4-yl-2-[2-(trifluo]
Determine, for I and II , which has the greater value of IC50. Give the label under which the chosen entry appears. II

A. O=C(NCC1(c2ccc(Cl)cc2)CCOCC1)c1cc(F)ccc1F
B. COc1cccc(C(=O)NCC(CC2CC2)c2ccc(C(F)(F)F)nc2)c1Cl (single isomer, unassigned; (+)) [(+)2-chloro-N-[3-cyclopropyl-2-[6-(trifluoromethyl)-3-pyridy]
Please indicate which has the smaller reported IC50: A , or B . Give the label under which the chosen entry appears. B
